B1: Osa-1-4 twister ribozyme (parent)
chain: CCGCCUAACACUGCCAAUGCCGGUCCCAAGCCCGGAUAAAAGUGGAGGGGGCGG

- Variants of: B1
- PROTOCOL: self-cleavage, relative activity (ratio to wild type); higher = more cleavage; co-transcriptional
Classify by measured self-cleavage: YES if it is equal to or exceeds 0.1, NO if it is smaller.

# count of solved cases: 2
> print(dat)
   variant.identifier  classification
1           C31A G30C              NO
2           C26G G54A              NO

// inclusive: self-cleavage at least 0.1? input: A16U A7C
NO

Is the recorded value of self-cleavage equal to or greater than 0.1 for this variant? C31G U37C
NO

Does self-cleavage meet or surpass 0.1 for A17C U24C ?
NO

Reported self-cleavage at or above 0.1? G13U G30C
NO

Decide: is the reported value of self-cleavage for A39G G54A equal to or greater than 0.1?
YES

Hello, I need to know if C11U C9U has measured self-cleavage not below 0.1. Thanks!
YES

Is self-cleavage for C9G G53U at or above 0.1?
YES

Could you verify whether the entry C33G G44U shows self-cleavage of no less than 0.1?
NO

# credit: the RNAGym collection of RNA variant scans (doi:10.1002/anie.201605470)
